SYSTEM TESTED: T1, SERF1a (human, UniProt O75920-2 1-62)
T1 sequence: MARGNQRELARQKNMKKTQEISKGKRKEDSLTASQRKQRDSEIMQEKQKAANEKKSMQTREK
EXPERIMENT SUMMARY: ITC
READOUT NAME: Kd
Answer shape: numeric part, then the unit.

Exercise: // Input: ACUGCUAGAGAUUUUCCACAU (ssRNA) [R21(-) / 21R(-)] . Output its Kd only.
Key: 5.99 µM
